biological target: wild-type EGFR expressed on cells (human), P00533; assay: flow cytometry, A431 cells; conditions: remark: other sources report otherwise
MEASUREMENT_TYPE: MFI

BINDER | MEASURED_VALUE
12B2 (antibody, V domains shown) VH: QVTLKESGPVLVKPTETLTLTCTVSGFSLSNPRMGVSWIRQPPGKALEWLGHIFSSDEKSYRLSLRSRLSISKDTSKSQVVLTMTNMDPVDTATYYCVRDSSNYGGYFDYWGQGTLVTVSS VL: EVVMTQSPATLSVSPGERATLSCRASQSVINNLAWYQQKPGQAPRLLIYGTSTRATDIPARFSGSGSGTEFTLTISSLQSEDFAVYYCQDYNNWPFTFGPGTKVDIK | 571
11F10 (antibody, V domains shown) VH: QVTLKESGPVLVKPIETLTLTCTVCGFSLSNPRMGVSWIRQPPGKALEWLGHIFSSDEKSYRLFLRSRLSISKDTSKSQVVLTMTNMDPVDTATYYCARDSSDYEGYFDYWGQGTLVTVSS VL: EIVMTQSPATLSVSPGERTTLSCRASQSVGSNLAWYQQKPGQAPRLLIYGASTRASGVPARFSGSGSGTEFTLTISSLQSEDFAVYSCQEYNNWPFTFGQGTKVEIK | 582
11B11 (antibody, V domains shown) VH: QVTLKESGPVLVKPTETLTLTCTVSGFSLSNAKMGVSWIRQPPGKALEWLAHIFSTDEKSIRRSLRSRLTMSKDTSKSQVVLTMTNMDPVDTATYYCVRDSSNYEGYFDYWGQGTLVTVSS VL: EVLMTQSPATLSVSPGERATLSCRASQSVSTNFAWYQQRPGQAPRLLLFGASTRATGIPGRFSGSGSGTENILTISSLQSEDFAIYFCQQYKDWPFTFGPGSKVEIK | 589
30D8 (antibody, V domains shown) VH: EVQLVESGGGLVKPGGSLRLSCEASGFTFSDAWMSWVRQAPGKGLEWVGRIKSKTDGGTTDYVVPLNGRFIISRDDSRNTLYLQLNNLKTEDTAVYYCTTVPGSYGYWGQGTLVTVSS VL: DIVMTQSPLSLPVTPGEPASISCRSSQSLLHNKRNNYLDWFLQKPGQSPQLLIYLASNRASGVPDRFSGGGSGTDFTLKISRVEAEDVGVYYCMQAQQTPITFGQGTRLEIK | 269
29D5 (antibody, V domains shown) VH: QVTLKESGPVLVKPTETLTLTCTVSGFSLSNPRMGVSWLRQPPGKALEWFAHIFSTDEKSYSPSLRGRLTVSKDTSKSQVVLTLTNMDPVDTATYYCARDSSNYEGYFDYWGQGTLVTVSS VL: KIVMTQSPATLSVSPGERATLSCRANQIVSSNLAWYQQKPGQAPRLLVFGTSTRATGIPIRFSGSGSGTEFTLTVSSLQSEDFAVYVCQQYNDWPFTFGPGTKVDIK | 531

Origin of the recorded values: patent US20190144550A1
